Assay: NCI Yeast Anticancer Drug Screen. Data for the bub3 strain (AID 167)
Details: S. cerevisiae bub3 mutant strain, at 50.0 µM, hits give high values
This is part of a sample that, as a whole, favours compounds with a hit. Of some 79,000 tested, about 15% had one in any assay.
Measured Parameter: growth inhibition (%)
Use % as the unit, but write only the number.

Known results for compounds:
CCCCNC[C@@H](O)[C@H](O)COS(C)(=O)=O    -13.7
Cc1cccc(C)c1NC(=O)C(=O)/C(=C(\N)c1ccccc1)c1ccccc1    10.2
Nc1ncnc2c1[nH]c(=S)n2C1OC(CO)C(O)C1O (stereo not given)    4
CN(/N=C\c1ccccc1)C(c1ccccc1)N(C)/N=C/c1ccccc1 (stereo not given)    -17.3

q: What value of measured growth inhibition is listed for CC(=O)Nc1nnnn1C ?
a: -1.9

q: What value of measured growth inhibition is listed for Cc1cc2[nH]c3c(C#N)c4c(c(=O)n3c2cc1C)CCCC4 ?
a: -5.85

q: What value of measured growth inhibition is listed for O=S(=O)(Oc1ccc(Cl)cc1)c1cccc(S(=O)(=O)Oc2ccc(Cl)cc2)c1 ?
a: 5.5

q: What value of measured growth inhibition is listed for CCOc1c(N=Nc2ccccc2C)c(-c2ccccc2)nn1C(N)=S ?
a: -3.5

q: What value of measured growth inhibition is listed for Cc1cccc(-c2c3ccccc3cc3c2ccc2ccccc23)c1 ?
a: 8.7

====

Experiment: NCI Yeast Anticancer Drug Screen. Data for the bub3 strain (AID 167)
Conditions: S. cerevisiae bub3 mutant strain, at 50.0 µM, hits give high values
Method: Growth inhibition of yeast strains with defined genetic alterations is measured as a screen for potential anti-cancer activity. Selected strains with alterations in DNA damage repair or cell cycle control were exposed to compounds and growth inhibition was measured relative to vehicle treated controls. The strain used in this assay is bub3
The panel holds about 79,000 compounds, 15% with a hit somewhere; the sample as a whole holds those more often.
Measured Parameter: growth inhibition (%)
Use % as the unit, but write only the number.

CC(CN1CCCCC1)SSC(C)CN1CCCCC1 (centres undefined)    11.5
Cc1ccc(S(=O)(=O)NCCC(=O)O)cc1    -3.3
c1ccc(-c2nc(-c3nn[nH]n3)c3ccccc3n2)cc1    14.5
CCC1SCC(C)(C)NC1=O (centres undefined)    28.8
CC1(C)Cc2c(oc3ncnc(N)c23)CS1    -4.65

q: What value of measured growth inhibition is listed for Clc1ccc(N[P+](c2ccccc2)(c2ccccc2)c2ccccc2)cc1.[Cl][Fe]([Cl])([Cl])[Cl] ?
a: 5.8

q: What value of measured growth inhibition is listed for COc1ccc(S(=O)(=O)N/N=C/C(=O)OCOC(=O)C(C)(C)C)cc1 ?
a: -25.9

q: What value of measured growth inhibition is listed for Cc1cc(C)c(OC(=O)c2ccc(C(=O)Oc3c(C)cc(C)cc3C)cc2)c(C)c1 ?
a: -1.6

q: What value of measured growth inhibition is listed for Cc1cccc(N=Nc2ccc(N=Nc3c(O)ccc4ccccc34)cc2C)c1 ?
a: 17.3

q: What value of measured growth inhibition is listed for O=C(O)CCCN1CCCCC1 ?
a: -63.9

q: What value of measured growth inhibition is listed for Clc1ncc(-c2ccccc2)nc1Cl ?
a: 1.75

q: What value of measured growth inhibition is listed for CCOC(=O)C1CCC(=O)N1Cc1c[nH]c2ccccc12 (centres undefined) ?
a: 21.4

q: What value of measured growth inhibition is listed for CCOC(=O)CN ?
a: -2

q: What value of measured growth inhibition is listed for CC1CCCN(C(=O)/C=C/c2ccccc2)C1 (centres undefined) ?
a: 6.3

q: What value of measured growth inhibition is listed for CC(C)=C1CC(C)(C)N=C1CCN1CCOCC1 ?
a: -11.3

q: What value of measured growth inhibition is listed for N#C/C(=C\c1c(S(=O)(=O)O)sc2ccccc12)C(N)=O (tested in a mixture with another compound) ?
a: -0.9
